Reported solubility values are given for each entry in this list.
assay: Solubility of the compound; assay type: physicochemical
Only the number, expressed in µM, is required.

INSERT INTO measurements (molecule, quantity_name, scale_unit, reading) VALUES
  ('Cc1noc2c(F)c3c(cc12)CC1(C(=O)NC(=O)NC1=O)[C@@H]1[C@@H](C)O[C@H](C)CN31', 'solubility', 'µM', 190),
  ('COCc1noc2c(F)c3c(cc12)CC1(C(=O)NC(=O)NC1=O)C1C(C)OC(C)CN31 (racemic)', 'solubility', 'µM', 180),
  ('C[C@@H]1CN2c3c(cc4c(C(F)(F)F)noc4c3F)CC3(C(=O)NC(=O)NC3=O)[C@H]2[C@H](C)O1', 'solubility', 'µM', 53);

Requested field: solubility. Item: CC1CN2c3c(cc4c(C(C)(C)C)noc4c3F)CC3(C(=O)NC(=O)NC3=O)C2C(C)O1 (racemic)
770

Subsequent entry: `COc1noc2c(F)c3c(cc12)CC1(C(=O)NC(=O)NC1=O)[C@H]1[C@H](C)O[C@H](C)CN31`
510

Subsequent entry: `Cc1noc2c(F)c3c(cc12)CC1(C(=O)NC(=O)NC1=O)[C@H]1[C@H](C)O[C@@H](C)CN31`
340

Subsequent entry: Cc1noc2c(Cl)c3c(cc12)CC1(C(=O)NC(=O)NC1=O)C1C(C)OC(C)CN31 (racemic)
330

Subsequent entry: CC1CN2c3c(cc4c(C5CC5)noc4c3F)CC3(C(=O)NC(=O)NC3=O)C2C(C)O1 (racemic)
29

Subsequent entry: `C[C@@H]1CN2c3c(cc4c(N)noc4c3F)CC3(C(=O)NC(=O)NC3=O)[C@H]2[C@H](C)O1`
330

From: ChEMBL document CHEMBL3352584
